Values compiled from patent US20230086603A1.

Target: T1, human PD-L1 (hPD-L1) (human, UniProt Q9NZQ7 19-290)
T1 construct: Endogenous hPD-L1 on JIMT1 (JIMT-1) cells; also called programmed death-ligand 1; CD274
T1 sequence (Q9NZQ7 19-290 limits assumed): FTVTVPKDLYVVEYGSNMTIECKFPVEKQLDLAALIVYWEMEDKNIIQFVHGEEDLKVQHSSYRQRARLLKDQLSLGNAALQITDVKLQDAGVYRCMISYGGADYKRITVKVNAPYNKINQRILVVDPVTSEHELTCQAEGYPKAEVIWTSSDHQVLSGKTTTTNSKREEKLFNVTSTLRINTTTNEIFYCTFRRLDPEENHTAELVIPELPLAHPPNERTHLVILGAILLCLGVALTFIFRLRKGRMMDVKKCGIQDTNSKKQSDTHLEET
Assay: flow cytometry on JIMT-1 cells expressing endogenous human PD-L1; anti-human IgG Fc secondary; geometric MFI
Method: Binding of the binding agents of an embodiment of the invention to human PD-L1 (hPD-L1) on cell surfaces was assessed by incubating the binding agents with JIMT1 cells that express endogenous hPD-L1. Briefly, the binding agents were diluted serially in FACS buffer (PBS+1% FBS+5 mM EDTA, pH 7.4) at 4° C. […] After unbound secondary antibody was washed out, cells were resuspended in FACS buffer plus 2% formaldehyde and analyzed by flow cytometry. […]
recorded_metric: binding result

- 9 (antibody, V domains shown) VH: QVQLVQSGAEVKKPGASVKVSCKASGHSFTHYYMHWVRQAPGQGLEWMGWMNPDSGSTGYAQKFQGRVTMTRDTSTSTVYMELSSLRSEDTAVYYCARALFPYPFYYYYMDVWGQGTLVTVSS VL: DIQMTQSPSSLSASVGDRVTITCRASQGIRNDLGWYQQKPGKAPKLLIYSASNLQSGVPSRFSGSGSGTDFTLTISSLQPEDFATYYCQQANSFPFTFGGGTKVEIK: binds
- 2 (antibody, V domains shown) VH: QVQLVQSGAEVKKPGASVKVSCKASGYTFTSYYMHWVRQAPGQGLEWMGWMNPNSDIAGYAQKFQGRVTMTRDTSTSTVYMELSSLRSEDTAVYYCAIPSIVGAYDAFDIWGQGTLVTVSS VL: DIQMTQSPSSLSASVGDRVTITCRASQSISSWLAWYQQKPGKAPKLLIYAASSLQSGVPSRFSGSGSGTDFTLTISSLQPEDFATYYCQQSYTTPITFGGGTKVEIK: binds
- 5 (antibody, V domains shown) VH: QVQLVQSGAEVKKPGASVKVSCKASGYTFNRFMHWVRQAPGQGLEWMGWMSLNSGLTGYAQKFQGRVTMTRDTSTSTVYMELSSLRSEDTAVYYCTRGTYNDAFDIWGQGTLVTVSS VL: DIQMTQSPSSLSASVGDRVTITCRASQTISNYLNWYQQKPGKAPKLLIYAASSLQSGVPSRFSGSGSGTDFTLTISSLQPEDFATYYCQQSYTTPITFGGGTKVEIK: binds
